Reference for the values: paper PMC3289678

Assay notes: anti-hPAP western blot, lysates and secreted fractions
Conditions used: glycan lost; control: wild-type r-hPAP
Measurement type: expression_or_secretion

• secretory human prostatic acid phosphatase (hPAP, S-PAP): N188Q, N301Q (protein) parent chain: MRAAPLLLARAASLSLGFLFLLFFWLDRSVLAKELKFVTLVFRHGDRSPIDTFPTDPIKESSWPQGFGQLTQLGMEQHYELGEYIRKRYRKFLNESYKHEQVYIRSTDVDRTLMSAMTNLAALFPPEGVSIWNPILLWQPIPVHTVPLSEDQLLYLPFRNCPRFQELESETLKSEEFQKRLHPYKDFIATLGKLSGLHGQDLFGIWSKVYDPLYCESVHNFTLPSWATEDTMTKLRELSELSLLSLYGIHKQKEKSRLQGGVLVNEILNHMKRATQIPSYKKLIMYSAHDTTVSGLQMALDVYNGLLPPYASCHLTELYFEKGEYFVEMYYRNETQHEPYPLMLPGCSPSCPLERFAELVGPVIPQDWSTECMTTNSHQGTEDSTD = abolishes
• secretory human prostatic acid phosphatase (hPAP, S-PAP): N301Q (protein) parent chain: MRAAPLLLARAASLSLGFLFLLFFWLDRSVLAKELKFVTLVFRHGDRSPIDTFPTDPIKESSWPQGFGQLTQLGMEQHYELGEYIRKRYRKFLNESYKHEQVYIRSTDVDRTLMSAMTNLAALFPPEGVSIWNPILLWQPIPVHTVPLSEDQLLYLPFRNCPRFQELESETLKSEEFQKRLHPYKDFIATLGKLSGLHGQDLFGIWSKVYDPLYCESVHNFTLPSWATEDTMTKLRELSELSLLSLYGIHKQKEKSRLQGGVLVNEILNHMKRATQIPSYKKLIMYSAHDTTVSGLQMALDVYNGLLPPYASCHLTELYFEKGEYFVEMYYRNETQHEPYPLMLPGCSPSCPLERFAELVGPVIPQDWSTECMTTNSHQGTEDSTD = abolishes
• secretory human prostatic acid phosphatase (hPAP, S-PAP): N62Q, N301Q (protein) parent chain: MRAAPLLLARAASLSLGFLFLLFFWLDRSVLAKELKFVTLVFRHGDRSPIDTFPTDPIKESSWPQGFGQLTQLGMEQHYELGEYIRKRYRKFLNESYKHEQVYIRSTDVDRTLMSAMTNLAALFPPEGVSIWNPILLWQPIPVHTVPLSEDQLLYLPFRNCPRFQELESETLKSEEFQKRLHPYKDFIATLGKLSGLHGQDLFGIWSKVYDPLYCESVHNFTLPSWATEDTMTKLRELSELSLLSLYGIHKQKEKSRLQGGVLVNEILNHMKRATQIPSYKKLIMYSAHDTTVSGLQMALDVYNGLLPPYASCHLTELYFEKGEYFVEMYYRNETQHEPYPLMLPGCSPSCPLERFAELVGPVIPQDWSTECMTTNSHQGTEDSTD = abolishes
